Biological target: human ether-à-go-go-related gene (hERG) potassium channel (human)
Assay: primary screen, population patch clamp on CHO cells stably expressing hERG; higher = less effect of the substance
Out of some 310,000 compounds screened, about 2,200 (0.71%) showed an effect of 50% or more. The effect is printed as a negative number. The entries come from a sample that favours strong results as a whole.
observation-type: hERG current change (%, negative = inhibition) at 1uM

[
  {
    "molecule": "C1CCN(c2nc(N3CCCCC3)nc(N3CCNCC3)n2)CC1",
    "system-under-test": "human ether-à-go-go-related gene (hERG) potassium channel (human)",
    "result": "2.68%"
  },
  {
    "molecule": "COc1ccc(OC)c(S(=O)(=O)NCC(=O)NC2CCCCCC2)c1",
    "system-under-test": "human ether-à-go-go-related gene (hERG) potassium channel (human)",
    "result": "16%"
  },
  {
    "molecule": "CCC(CC)c1nnc(NC(=O)c2cccc(S(=O)(=O)N3CCc4ccccc43)c2)s1",
    "system-under-test": "human ether-à-go-go-related gene (hERG) potassium channel (human)",
    "result": "13.3%"
  },
  {
    "molecule": "Cc1ccc(NC(=O)NC2CC(=O)N(c3ccc4c(c3)OCCO4)C2)cc1 (stereo not drawn)",
    "system-under-test": "human ether-à-go-go-related gene (hERG) potassium channel (human)",
    "result": "11.3%"
  },
  {
    "molecule": "Cc1cccc(-c2nnc(SCc3ccc(C#N)cc3)n2Cc2ccco2)c1",
    "system-under-test": "human ether-à-go-go-related gene (hERG) potassium channel (human)",
    "result": "-44%"
  },
  {
    "molecule": "CCN(C(=O)c1cc2c(=O)n3ccccc3nc2n1CCCOC)C1CCCCC1",
    "system-under-test": "human ether-à-go-go-related gene (hERG) potassium channel (human)",
    "result": "2.38%"
  },
  {
    "molecule": "COc1ccc(CCn2c(=N)c(C(=O)NC3CCCC3)cc3c(=O)n4cccc(C)c4nc32)cc1",
    "system-under-test": "human ether-à-go-go-related gene (hERG) potassium channel (human)",
    "result": "-79.9%"
  },
  {
    "molecule": "CCCC/C(O)=C/c1nc2ccccc2[nH]c1=O",
    "system-under-test": "human ether-à-go-go-related gene (hERG) potassium channel (human)",
    "result": "1.79%"
  },
  {
    "molecule": "Nc1nc(N2CCCCC2)nc(N(c2ccccc2)c2ccccc2)n1",
    "system-under-test": "human ether-à-go-go-related gene (hERG) potassium channel (human)",
    "result": "15.2%"
  },
  {
    "molecule": "Cc1ccc(S(=O)(=O)N2CCN(CC(=O)NC3CCCc4ccccc43)CC2)cc1C.O=C(O)C(=O)O (stereo not drawn)",
    "system-under-test": "human ether-à-go-go-related gene (hERG) potassium channel (human)",
    "result": "1.77%"
  },
  {
    "molecule": "Cc1ccc(NCc2nnc(SCc3ccc(C#N)cc3)n2Cc2ccco2)c(C)c1",
    "system-under-test": "human ether-à-go-go-related gene (hERG) potassium channel (human)",
    "result": "-54.9%"
  },
  {
    "molecule": "Cn1cnnc1SCC(=O)OCN1C(=O)c2ccccc2C1=O",
    "system-under-test": "human ether-à-go-go-related gene (hERG) potassium channel (human)",
    "result": "7.64%"
  }
]

----------
Target: human ether-à-go-go-related gene (hERG) potassium channel (human)
Test: primary screen, population patch clamp on CHO cells stably expressing hERG; higher = less effect of the substance
Hit rate of the full screen: of about 310,000 compounds, about 2,200 (0.71%) showed an effect of 50% or more. Effects have a minus sign here. This is one part of a sample in which strong results are shown more often than they occur.
observation-type: hERG current change (%, negative = inhibition) at 1uM (%)

[
  {
    "compound": "CCOc1ncccc1C(=O)Nc1ccc(Cl)c(S(=O)(=O)N2CCCC2)c1",
    "result": 2.41
  },
  {
    "compound": "Cc1ccccc1OCCC(=O)Nc1ccc(S(=O)(=O)N(C)C2CCN(C)CC2)cc1",
    "result": 20.4
  },
  {
    "compound": "COc1ccc(C(=O)NC2CCCCCCC2)cc1OC",
    "result": 9.08
  },
  {
    "compound": "CCn1cc(CN(C)C(=O)/C=C/c2ccc([N+](=O)[O-])cc2)c(C)n1",
    "result": -35.3
  },
  {
    "compound": "COc1ccc(C(=O)NCCc2ccc(C)cc2)cc1OC1CCN(C(C)=O)CC1",
    "result": 9.4
  },
  {
    "compound": "COc1cc(CN2CCC(Oc3cc(C(=O)NC4CC4)ccc3OC)CC2)cc(OC)c1",
    "result": -62
  },
  {
    "compound": "COc1ccc(C(=O)NC2CC2)cc1OC1CCN(Cc2cc(C)cc(C)c2)CC1",
    "result": -57.7
  },
  {
    "compound": "Cc1ccc(N2NC(=O)/C(=C\\c3cc4c(cc3[N+](=O)[O-])OCO4)C2=O)cc1C",
    "result": 0.881
  },
  {
    "compound": "CC(C)C(NC(=O)OCc1ccccc1)C(=O)OCC(=O)NC1CC1 (stereo not shown)",
    "result": 11.3
  },
  {
    "compound": "CCc1nc(SCC(=O)c2ccc(Cl)s2)c2oc3ccccc3c2n1",
    "result": 9.25
  }
]

----------
Target: human ether-à-go-go-related gene (hERG) potassium channel (human, UniProt Q12809)
Sequence (Q12809 whole entry, looked up): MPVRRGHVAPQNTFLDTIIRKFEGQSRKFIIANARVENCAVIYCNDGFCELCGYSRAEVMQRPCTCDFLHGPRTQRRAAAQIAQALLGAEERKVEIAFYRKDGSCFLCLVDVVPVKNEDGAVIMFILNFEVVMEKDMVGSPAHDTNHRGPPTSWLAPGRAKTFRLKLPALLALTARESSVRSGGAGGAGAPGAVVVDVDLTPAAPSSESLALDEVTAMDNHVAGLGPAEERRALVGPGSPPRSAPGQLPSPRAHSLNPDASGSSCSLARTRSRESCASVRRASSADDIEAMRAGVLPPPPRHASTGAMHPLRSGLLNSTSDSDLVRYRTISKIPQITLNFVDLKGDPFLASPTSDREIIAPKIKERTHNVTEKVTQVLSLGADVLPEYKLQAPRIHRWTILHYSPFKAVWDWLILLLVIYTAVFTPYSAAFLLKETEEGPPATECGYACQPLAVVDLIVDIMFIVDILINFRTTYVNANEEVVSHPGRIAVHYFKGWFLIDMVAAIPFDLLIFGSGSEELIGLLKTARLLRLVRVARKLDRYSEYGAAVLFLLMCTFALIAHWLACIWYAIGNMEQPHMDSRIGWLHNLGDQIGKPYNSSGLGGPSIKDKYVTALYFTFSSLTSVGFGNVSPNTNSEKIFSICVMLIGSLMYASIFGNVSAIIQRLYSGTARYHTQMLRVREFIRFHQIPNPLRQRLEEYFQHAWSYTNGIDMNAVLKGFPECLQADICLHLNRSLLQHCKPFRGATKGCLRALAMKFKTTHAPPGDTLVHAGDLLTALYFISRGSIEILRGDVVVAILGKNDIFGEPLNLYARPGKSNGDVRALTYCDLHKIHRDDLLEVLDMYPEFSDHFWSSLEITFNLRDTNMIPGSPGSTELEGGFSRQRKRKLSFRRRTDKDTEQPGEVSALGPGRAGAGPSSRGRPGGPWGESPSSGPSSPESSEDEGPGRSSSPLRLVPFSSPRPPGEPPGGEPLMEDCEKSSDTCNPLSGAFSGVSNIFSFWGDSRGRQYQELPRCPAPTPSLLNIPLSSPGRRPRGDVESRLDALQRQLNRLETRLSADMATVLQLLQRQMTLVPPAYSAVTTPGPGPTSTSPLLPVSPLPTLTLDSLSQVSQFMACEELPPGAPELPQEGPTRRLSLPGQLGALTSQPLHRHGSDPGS
Test: primary screen, population patch clamp on CHO cells stably expressing hERG; higher = less effect of the substance
The campaign covered roughly 310,000 compounds. About 2,200 (0.71%) showed an effect of 50% or more. Effects have a minus sign here. The list comes from a sample in which strong results are over-represented; it also holds close analogues and randomly drawn compounds.
observation-type: hERG current change (%, negative = inhibition) at 1uM (%)

[
  {
    "compound": "CC1CCC(C(C)C)C(OC(=O)Cn2c(-c3ccccc3)[n+](C)c3ccccc32)C1.[Cl-] (stereo not drawn)",
    "result": -42.1
  },
  {
    "compound": "O=C(CCN1CCN(c2ccccc2)CC1)N/N=C/c1ccccc1O",
    "result": 9.66
  },
  {
    "compound": "CCOS(=O)(=O)[O-].CC[n+]1c(/C=C/Nc2ccccc2)oc2ccc(OC)cc21",
    "result": -68.8
  },
  {
    "compound": "Cc1cccc(OCc2n(CC(=O)OC3CC(C)CCC3C(C)C)c3ccccc3[n+]2C)c1.[Cl-] (stereo not drawn)",
    "result": -12.2
  },
  {
    "compound": "Cc1ccc(N(CC(O)CN2CCOCC2)S(=O)(=O)c2ccc3ccccc3c2)cc1 (stereo not drawn)",
    "result": -55.6
  },
  {
    "compound": "Cc1ccccc1OCc1n(CC(=O)OC2CC(C)CCC2C(C)C)c2ccccc2[n+]1C.[Cl-] (stereo not drawn)",
    "result": -1.86
  },
  {
    "compound": "O=C(/C=C/c1ccco1)Nc1cccc(S(=O)(=O)N2CCOCC2)c1",
    "result": -5.85
  },
  {
    "compound": "Cc1ccc(S(=O)(=O)N(CC(O)CN2CCCCC2)c2ccccc2)cc1.Cl (stereo not drawn)",
    "result": -60.5
  },
  {
    "compound": "CC1CCC(C(C)C)C(OC(=O)Cn2c(-c3ccc(Br)cc3)[n+](C)c3ccccc32)C1.[Cl-] (stereo not drawn)",
    "result": -60.7
  },
  {
    "compound": "COC(=O)CN1C(=O)Nc2ccc(Br)cc2C1c1ccccc1Cl (stereo not drawn)",
    "result": -8.8
  },
  {
    "compound": "CC1CCC(C(C)C)C(OC(=O)Cn2c(COc3ccccc3)[n+](C)c3ccccc32)C1.[Cl-] (stereo not drawn)",
    "result": -54
  },
  {
    "compound": "CC[n+]1c(/C=C/N(C)c2ccccc2)oc2ccccc21.O=S(=O)([O-])CCO",
    "result": 12
  },
  {
    "compound": "CC1CCC(C(C)C)C(OC(=O)COC(=O)c2ccccc2N)C1 (stereo not drawn)",
    "result": 4.58
  },
  {
    "compound": "CC1CCC(C(C)C)C(OC(=O)COC(=O)c2cccn2C)C1 (stereo not drawn)",
    "result": 17.6
  },
  {
    "compound": "Cn1c(=O)n(C)c2cc(NC(=O)CSc3nnc(-c4ccccc4O)n3-c3ccccc3)ccc21",
    "result": 6.95
  },
  {
    "compound": "CCOc1ccc(CNCCc2ccc3c(c2)OCO3)cc1",
    "result": -52.6
  },
  {
    "compound": "COc1ccc(C(CCNCc2ccc(N(C)C)cc2)c2ccccc2)cc1 (stereo not drawn)",
    "result": -56.4
  },
  {
    "compound": "Cc1ccc(CN2CCN(Cc3cccn3-c3ccc(Cl)cn3)CC2CCO)o1 (stereo not drawn)",
    "result": 0.259
  },
  {
    "compound": "COc1ccc(CCNC(=O)CN2C(=O)NC(Cc3c[nH]c4ccccc34)C2=O)cc1 (stereo not drawn)",
    "result": 9.58
  },
  {
    "compound": "CC[n+]1ccccc1/C=C/Nc1ccccc1.[I-]",
    "result": -5.67
  },
  {
    "compound": "Cc1ccc(N(CC(O)CN2CCCC2)S(=O)(=O)c2ccc(C)cc2)cc1.Cl (stereo not drawn)",
    "result": -81.7
  },
  {
    "compound": "O=C(O)CCCCCCCCCCCc1ccccc1",
    "result": 12.7
  },
  {
    "compound": "CC1CCC(C(C)C)C(OC(=O)C[n+]2cc(-c3ccc(Cl)cc3)n3c2CCCCC3)C1.[Cl-] (stereo not drawn)",
    "result": -19.9
  },
  {
    "compound": "COc1cccc(-c2nc3n(n2)C(c2ccc4c(c2)OCO4)C(C(N)=O)=C(C)N3)c1 (stereo not drawn)",
    "result": 6.43
  }
]
